- assay target: T1, recombinant human B7-H4-huIgG1 (human)
- T1 construct: also called B7-H4-extracellular domain (ECD)
- T1 sequence (chain, as listed by the source limits assumed): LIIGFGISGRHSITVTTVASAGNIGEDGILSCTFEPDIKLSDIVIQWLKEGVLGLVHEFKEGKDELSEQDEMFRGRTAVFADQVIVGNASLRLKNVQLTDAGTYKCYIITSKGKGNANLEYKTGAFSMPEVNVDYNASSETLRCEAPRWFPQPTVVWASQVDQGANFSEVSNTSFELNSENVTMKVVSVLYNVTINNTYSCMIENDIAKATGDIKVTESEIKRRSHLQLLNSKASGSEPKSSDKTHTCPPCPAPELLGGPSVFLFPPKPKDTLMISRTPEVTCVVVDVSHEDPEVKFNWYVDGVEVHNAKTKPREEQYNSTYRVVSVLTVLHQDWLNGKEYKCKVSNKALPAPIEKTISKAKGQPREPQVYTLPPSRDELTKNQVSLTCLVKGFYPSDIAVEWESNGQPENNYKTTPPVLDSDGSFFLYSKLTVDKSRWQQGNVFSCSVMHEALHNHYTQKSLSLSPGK
- protocol summary: BLI, antigen on Protein A tips;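 note: Anti-B7-H4 antibodies assessed for affinity toward the B7-H4 extracellular domain using biolayer interferometry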
recorded metric: koff (s⁻¹)
Provide the reading as a plain figure in s⁻¹.

{"binder": "B7-H4 antibody 20501 (antibody, human IgG1, kappa, V domains shown, human IgG1/kappa) VH: QLQLQESGPGLVKPSETLSLTCTVSGGSIKSGSHYWGWIRQPPGKGLEWIGNIYYSGSTYYNPSLKSRVTISVDTSKNQFSLKLSSVTAADTAVYYCAREGSYPNWLDPWGQGTLVTVSS VL: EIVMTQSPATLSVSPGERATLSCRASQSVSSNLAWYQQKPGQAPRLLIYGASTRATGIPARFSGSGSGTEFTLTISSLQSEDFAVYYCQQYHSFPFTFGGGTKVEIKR", "recorded metric": "koff", "unit spec": "s⁻¹", "assay result": 0.00251}

Inquiry: Suppose we examine the binder B7-H4 antibody 20502 (antibody, V domains shown, human IgG1/kappa) VH: QLQLQESGPGLVKPSETLSLTCTVSGGSIKSGSYYWGWIRQPPGKGLEWIGNIYYSGSTYYNPSLRSRVTISVDTSKNQFSLKLSSVTAADTAVYYCAREGSYPNQFDPWGQGTLVTVSS VL: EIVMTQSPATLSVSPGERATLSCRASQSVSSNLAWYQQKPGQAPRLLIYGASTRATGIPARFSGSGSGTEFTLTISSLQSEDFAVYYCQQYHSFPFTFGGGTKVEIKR ; what koff value has been reported?
Reply text: 0.00115

Inquiry: Suppose we examine the binder B7-H4 antibody 20496 (antibody, human IgG1, kappa, V domains shown, human IgG1/kappa) VH: QLQLQESGPGLVKPSETLSLTCTVSGGSISSSVYYWSWIRQPPGKGLEWIGSILVSGSTYYNPSLKSRVTISVDTSKNQFSLKLSSVTAADTAVYYCARAVSFLDVWGQGTMVIVSS VL: DIQMTQSPSSLSASVGDRVTITCRASQSISSYLNWYQQKPGKAPKLLIYGASSLQSGVPSRFSGSGSGTDFTLTISSLQPEDFATYYCQQSYDPPWTFGGGTKVEIKR ; what koff value has been reported?
Reply text: 0.000555
